Target: T1, human CD19 on Raji cells (human, UniProt P15391 20-556)
T1 construct: whole, on cells
T1 sequence (looked up): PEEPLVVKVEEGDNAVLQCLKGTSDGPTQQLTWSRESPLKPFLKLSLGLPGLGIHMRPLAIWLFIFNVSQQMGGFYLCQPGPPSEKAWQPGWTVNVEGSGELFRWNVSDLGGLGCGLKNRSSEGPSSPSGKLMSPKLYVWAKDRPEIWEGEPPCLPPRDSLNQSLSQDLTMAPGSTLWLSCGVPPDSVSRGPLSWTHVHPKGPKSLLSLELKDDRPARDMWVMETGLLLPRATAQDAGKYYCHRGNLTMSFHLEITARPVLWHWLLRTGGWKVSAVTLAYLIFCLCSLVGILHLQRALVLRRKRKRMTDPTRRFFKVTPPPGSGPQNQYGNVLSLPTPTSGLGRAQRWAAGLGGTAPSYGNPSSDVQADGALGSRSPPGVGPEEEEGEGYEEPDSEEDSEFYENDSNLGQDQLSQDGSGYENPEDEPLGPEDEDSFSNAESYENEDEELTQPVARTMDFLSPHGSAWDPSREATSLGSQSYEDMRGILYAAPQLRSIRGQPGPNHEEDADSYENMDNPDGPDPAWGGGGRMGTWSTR
Assay: FACS on Raji cells
Hi there, I'd appreciate the recorded EC50 for every entry that follows.
Report as: number unit

Consider the binder shown here: F4.18.13 (antibody, human IgG1, V domains shown, human-murine chimeric antibody, human IgG1) VH: QVQLQQSGPELVKPGASVKISCKASGYAFSSFWMNWVKQRPGEGLEWIGRIYPGDGDTNYNGKFKGKATLTADDSSSTAYMQLSSLTSVDSAVYFCAREVIAAVVTTDFDYWGQGTTLTVSS VL: DIQMTQTTSSLSASLGDRVTISCRTSQDISNYLNWYLQKPDGTVKLLIYYTSGLHSGVPSRFSGSGSGTDYSLTISNLEPEDIATYFCQQGKTLPYTFGGGTKLEIK What is its recorded EC50? 1.31 nM

Hey, quick one: what's EC50 for each of these?
1. F3.40.14 (antibody, human IgG1, V domains shown, human-murine chimeric antibody, human IgG1) VH: QAQLQQSGPELVKPGASVKISCKASGYAFSGSWMNWVQQRPGKGLEWIGRIYPGDGDTYYSGKFKDKAILTADTSSSTAYMQLSSLTSEDSAVYFCAQLRSRYVMDYWGQGASVTVSS VL: DIVLTQSPASLAVSLGQRATISCRASESVSIHGTHLMHWYQQKPGQPPRLLIYAASNLESGVPARFSGSGSETDFTLNIHPVEEEDAATYFCQQGIDDPYTFGGGTKLEIK
2. F4.152.7 (antibody, human IgG1, V domains shown, human-murine chimeric antibody, human IgG1) VH: QVQLQQPGAELVKPGASVKLSCKASGYTFTSYWMHWVKQRPGQGLEWIGEIDPSDSYTNYNQKFKGKATLTADKSSSTAYMQLSGLTSEDSAVYHCARGGDYDGYYVMDYWGQGTSVTVSS VL: EIVLTQSPTTMAASPGEKITITCSASSSISSNYLHWYQQKPGFSPKLLIYRTSNLASGVPARFSGSGSGTSYSLTIGTMEADDVATYYCQQGSYIPRIFTFGSGTKLEIK
3. F6.12.12 (antibody, human IgG1, V domains shown, human-murine chimeric antibody, human IgG1) VH: DVQLQESGPGLVKPSQSLSLTCSVTGYSITSGYYWIWIRQFPGNKLEWMGYISYDASNKYKPSLKNRISITRDTSKNQFFLKLNSVTAEDTATYFCAREDLRGYFDVWGTGTSVTVSS VL: DIVLTQSPASLAVSLGRRATISCRASQSVSTSGFSYMHWYQQKPGQPPNLLIKYASILQSGVPARFSGSGSGTDFILNIHPVEDVDTATYYCQHSWGIPFTFGSGTKLEIK
4. F4.58.6 (antibody, human IgG1, V domains shown, human-murine chimeric antibody, human IgG1) VH: QVQLQQPGAELVKPGASVKLSCKASGYTFTSYWMHWVKQRPGQGLEWIGEIDPSDSYSNYNQKFKGKATLTVDKSSSTAYMQLSSLTSEDSAVYYCARSNYGSSYGYFDVWGAGTTVTVSS VL: QIVLTQSPAIMSASPGEKVTMTCSVSSSLSYMHWYQQKPGTSPKRWIYDTSKLASGVPARFSGSGSGTSYSLTISSMEAEDAATYYCHQRSSYPTFGGGTKLEIK

2.59 nM
0.76 nM
5.25 nM
1.31 nM

// data source = patent US20250042994A1
